tested on: RXRa homodimer (NR concentration 180 nM); assay: PBM binding z-score (relative to random genomic background probes); higher = stronger binding; sequences stand for … in GC…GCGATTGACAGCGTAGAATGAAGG
Test Readout: PBM binding z-score

A selection of reference data follows.
Residue Sequence: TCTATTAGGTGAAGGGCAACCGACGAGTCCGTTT
Assayed System: RXRa homodimer (NR concentration 180 nM)
PBM binding z-score: 0.977
//
Residue Sequence: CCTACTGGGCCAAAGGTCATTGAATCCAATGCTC
Assayed System: RXRa homodimer (NR concentration 180 nM)
PBM binding z-score: 6.52
//
Residue Sequence: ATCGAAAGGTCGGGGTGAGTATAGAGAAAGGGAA
Assayed System: RXRa homodimer (NR concentration 180 nM)
PBM binding z-score: 3.77
//
Residue Sequence: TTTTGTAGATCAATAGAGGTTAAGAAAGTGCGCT
Assayed System: RXRa homodimer (NR concentration 180 nM)
PBM binding z-score: 1.52

Request: Record request: PBM binding z-score value, item CCAACTAGGTCAAGGTCAAAGTCGGTTTGTGCCA
Response: 5.72

Request: Record request: PBM binding z-score value, item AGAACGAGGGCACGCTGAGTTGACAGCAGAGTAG
Response: 1.73

Request: Record request: PBM binding z-score value, item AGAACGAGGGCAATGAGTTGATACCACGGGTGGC
Response: 0.987

Request: Record request: PBM binding z-score value, item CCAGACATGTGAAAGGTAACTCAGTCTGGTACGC
Response: 0.767

Request: Record request: PBM binding z-score value, item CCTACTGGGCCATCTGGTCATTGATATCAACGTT
Response: -0.224

Request: Record request: PBM binding z-score value, item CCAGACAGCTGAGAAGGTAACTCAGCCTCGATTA
Response: -0.206

Request: Record request: PBM binding z-score value, item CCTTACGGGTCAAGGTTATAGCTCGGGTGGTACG
Response: 4.81

Request: Record request: PBM binding z-score value, item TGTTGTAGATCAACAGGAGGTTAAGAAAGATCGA
Response: 0.741

Request: Record request: PBM binding z-score value, item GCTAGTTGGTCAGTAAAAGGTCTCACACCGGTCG
Response: 0.172

Request: Record request: PBM binding z-score value, item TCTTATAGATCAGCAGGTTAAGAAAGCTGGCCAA
Response: 0.376

Request: Record request: PBM binding z-score value, item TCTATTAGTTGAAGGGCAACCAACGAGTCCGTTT
Response: 0.529

Request: Record request: PBM binding z-score value, item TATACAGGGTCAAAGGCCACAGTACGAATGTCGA
Response: 7.97

Request: Record request: PBM binding z-score value, item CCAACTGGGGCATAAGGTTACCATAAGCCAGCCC
Response: 1.24

---

system: VDR:RXRa (NR concentration 270 nM, RXRa partner concentration 90 nM); experiment: PBM binding z-score (relative to random genomic background probes); higher = stronger binding; sequences stand for … in GC…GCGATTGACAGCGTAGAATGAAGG
PBM binding z-score below 0.9 gives No; PBM binding z-score at or above it gives Yes.

Request: Determine whether measured PBM binding z-score meets or exceeds 0.9 for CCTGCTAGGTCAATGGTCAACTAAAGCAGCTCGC
Response: Yes

Request: Determine whether measured PBM binding z-score meets or exceeds 0.9 for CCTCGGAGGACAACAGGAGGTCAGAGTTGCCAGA
Response: Yes

Request: Determine whether measured PBM binding z-score meets or exceeds 0.9 for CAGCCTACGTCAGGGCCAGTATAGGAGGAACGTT
Response: No

---

test system: RXRa DBDmut IVT, anti-RXR (DBD mutation: RXRa K156A/R161A, NR concentration 90 nM); experiment: PBM binding z-score (relative to random genomic background probes); higher = stronger binding; sequences stand for … in GC…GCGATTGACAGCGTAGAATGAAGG
Test Readout: PBM binding z-score
Reply: number alone, nothing else.

Residue Sequence: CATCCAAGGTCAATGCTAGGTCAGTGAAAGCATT
Measured Number: 3.53
--
Residue Sequence: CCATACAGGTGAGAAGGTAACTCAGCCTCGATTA
Measured Number: 0.319
--
Residue Sequence: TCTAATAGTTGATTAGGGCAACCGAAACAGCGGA
Measured Number: 0.755
--
Residue Sequence: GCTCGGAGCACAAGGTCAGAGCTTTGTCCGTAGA
Measured Number: 0.228

For the next question, use this sequence.
Request: Record request: PBM binding z-score value, item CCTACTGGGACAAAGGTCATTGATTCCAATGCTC
Response: 1.83

---

system: RARb:RXRa (NR concentration 270 nM, RXRa partner concentration 90 nM); assay: PBM binding z-score (relative to random genomic background probes); higher = stronger binding; sequences stand for … in GC…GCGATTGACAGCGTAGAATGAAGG
This listing pairs sequences with measured PBM binding z-score.
Reply: number alone, nothing else.

Residue Sequence: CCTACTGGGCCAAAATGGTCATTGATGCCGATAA
PBM binding z-score: 0.172
//
Residue Sequence: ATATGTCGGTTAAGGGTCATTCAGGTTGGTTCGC
PBM binding z-score: 3.31
//
Residue Sequence: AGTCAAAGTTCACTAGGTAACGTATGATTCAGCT
PBM binding z-score: 4.76

Request: Record request: PBM binding z-score value, item ATCTCTAGATAACAAGTTCAGTGAAAGAGAGGAC
Response: 1

Request: Record request: PBM binding z-score value, item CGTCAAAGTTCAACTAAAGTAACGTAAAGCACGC
Response: 5.28

Request: Record request: PBM binding z-score value, item GATACAGGGTCACCTAGAGGCCAGAGTATGGAAA
Response: 4.56

Request: Record request: PBM binding z-score value, item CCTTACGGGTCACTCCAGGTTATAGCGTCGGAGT
Response: 3.74

Request: Record request: PBM binding z-score value, item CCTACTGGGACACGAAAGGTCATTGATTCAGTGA
Response: 4.06

Request: Record request: PBM binding z-score value, item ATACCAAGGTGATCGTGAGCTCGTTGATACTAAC
Response: 0.555

Request: Record request: PBM binding z-score value, item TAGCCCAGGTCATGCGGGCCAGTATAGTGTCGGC
Response: 3.74

Request: Record request: PBM binding z-score value, item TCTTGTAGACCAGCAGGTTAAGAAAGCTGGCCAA
Response: 0.179

Request: Record request: PBM binding z-score value, item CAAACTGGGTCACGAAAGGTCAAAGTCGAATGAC
Response: 5.56

Request: Record request: PBM binding z-score value, item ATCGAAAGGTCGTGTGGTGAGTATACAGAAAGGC
Response: 3.6

Request: Record request: PBM binding z-score value, item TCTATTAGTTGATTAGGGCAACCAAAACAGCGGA
Response: 0.905

Request: Record request: PBM binding z-score value, item CCTGCTAGGTCATGGTCAGCAAATCTACAGTATG
Response: 3.7

Request: Record request: PBM binding z-score value, item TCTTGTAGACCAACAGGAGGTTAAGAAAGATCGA
Response: 0.416

Request: Record request: PBM binding z-score value, item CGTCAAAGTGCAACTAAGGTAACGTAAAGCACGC
Response: 2.07

Request: Record request: PBM binding z-score value, item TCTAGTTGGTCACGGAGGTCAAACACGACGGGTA
Response: 3.9

Request: Record request: PBM binding z-score value, item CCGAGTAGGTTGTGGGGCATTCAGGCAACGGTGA
Response: 0.0437

Request: Record request: PBM binding z-score value, item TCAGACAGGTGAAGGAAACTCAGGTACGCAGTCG
Response: 0.976

Request: Record request: PBM binding z-score value, item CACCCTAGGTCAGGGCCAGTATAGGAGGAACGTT
Response: 3.38

Request: Record request: PBM binding z-score value, item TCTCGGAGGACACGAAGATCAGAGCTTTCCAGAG
Response: 1.21

---

tested on: PPARg:RXRa 270nM:90nM, anti-RXR (NR concentration 270 nM, RXRa partner concentration 90 nM); test: PBM binding z-score (relative to random genomic background probes); higher = stronger binding; sequences stand for … in GC…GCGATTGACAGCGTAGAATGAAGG
Please use the following PBM binding z-score ranges when assigning a class: bottom: < 1; middle: ≥ 1 and < 5; top: ≥ 5

Here are 3 sequences together with their reported answers.
Residue Sequence: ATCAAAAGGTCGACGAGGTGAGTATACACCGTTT
Class Label: middle
--
Residue Sequence: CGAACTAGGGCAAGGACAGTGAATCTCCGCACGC
Class Label: middle
--
Residue Sequence: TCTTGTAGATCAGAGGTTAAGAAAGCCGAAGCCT
Class Label: top

Request: Kindly identify the class of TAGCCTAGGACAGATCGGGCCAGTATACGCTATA .
Response: bottom

Request: Kindly identify the class of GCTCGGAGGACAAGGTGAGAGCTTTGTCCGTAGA .
Response: bottom

Request: Kindly identify the class of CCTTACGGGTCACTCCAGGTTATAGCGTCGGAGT .
Response: middle

Request: Kindly identify the class of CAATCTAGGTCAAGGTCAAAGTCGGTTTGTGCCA .
Response: top

Request: Kindly identify the class of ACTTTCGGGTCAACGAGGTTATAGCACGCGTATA .
Response: top

Request: Kindly identify the class of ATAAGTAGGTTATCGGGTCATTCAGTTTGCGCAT .
Response: top

Request: Kindly identify the class of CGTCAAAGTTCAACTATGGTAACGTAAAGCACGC .
Response: top

Request: Kindly identify the class of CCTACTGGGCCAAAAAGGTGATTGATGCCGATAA .
Response: bottom

Request: Kindly identify the class of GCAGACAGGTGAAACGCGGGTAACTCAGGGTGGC .
Response: bottom

Request: Kindly identify the class of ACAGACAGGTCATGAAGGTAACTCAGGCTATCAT .
Response: middle

Request: Kindly identify the class of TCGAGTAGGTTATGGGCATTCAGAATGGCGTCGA .
Response: middle
